Where do these numbers come from? They come from PubChem BioAssay AID2685.

- assay.method.text: qHTS Assay for Lipid Storage Modulators in Drosophila S3 Cells;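 also: cells counted by Cell Tracker Red CMTPX staining in the red channel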
- experimental.conditions: BODIPY lipid droplet fluorescence, 18-24 h, cells fed with added oleic acid; measured here: cell count max response
Among all 320,000 compounds or so, about 2,100 (0.66%) were called active. Inconclusive results (about 53%) are left out. Shown is part of a subset that was picked to be rich in actives.
measured.property: cell number change (%)
Give the value, in units of %, as a plain number.

Answered cases to consult:
O=C(Cn1cnc2c(cnn2-c2ccccc2)c1=O)Nc1ccc(S(=O)(=O)N2CCOCC2)cc1 ... -0.435
COCC(=O)Nc1ccc(Br)c(C)c1 ... 9.41
Cc1nc2c(C(=O)NCc3cccs3)cnn2c(C)c1Cc1ccccc1 ... -10.7
O=S(=O)(c1ccc(Oc2ccc(Br)cc2)cc1)N1CCOCC1 ... -10
COc1ccc(NS(=O)(=O)c2ccc3c(c2)oc(=O)n3C)cc1Cl ... 10.6

Q: Quick check: cell number change of COc1ccc(C2CC(=O)C3=C(C2)Nc2ccccc2N(C(=O)CCC(=O)O)C3c2ccc(F)cc2)cc1OC (stereo unspecified) ?
Result: -2.28
